// reported Inhibition, % at 3.7 nM for each item listed
Study system: T1, hPD-1-Fc (human, UniProt Q15116 25-167)
T1 construct: domain: IgV domain; also called human PD-1-Fc; not shown: human IgG1 Fc
T1 sequence (Q15116 25-167 limits assumed): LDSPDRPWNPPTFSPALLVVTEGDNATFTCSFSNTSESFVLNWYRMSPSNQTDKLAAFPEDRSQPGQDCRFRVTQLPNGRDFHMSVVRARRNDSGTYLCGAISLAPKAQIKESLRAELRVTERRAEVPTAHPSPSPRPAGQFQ
Method notes: blocking ELISA, PD-1 to PD-L2
Express the result in % but write the number alone.

Lab note: 38B2 (antibody, V domains shown, 24H9 derivative, IgG; also called 780_54; hPD1 Ab (38B2)) VH: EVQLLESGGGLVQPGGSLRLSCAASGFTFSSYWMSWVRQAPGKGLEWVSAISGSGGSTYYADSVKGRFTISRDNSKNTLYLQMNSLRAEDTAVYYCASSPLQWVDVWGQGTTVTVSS VL: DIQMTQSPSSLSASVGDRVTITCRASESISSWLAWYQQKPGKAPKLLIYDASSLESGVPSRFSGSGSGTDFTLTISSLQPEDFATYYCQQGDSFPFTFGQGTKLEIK gave Inhibition, % at 3.7 nM of 93.9

Lab note: 38A6 (antibody, V domains shown, also called 780_46) VH: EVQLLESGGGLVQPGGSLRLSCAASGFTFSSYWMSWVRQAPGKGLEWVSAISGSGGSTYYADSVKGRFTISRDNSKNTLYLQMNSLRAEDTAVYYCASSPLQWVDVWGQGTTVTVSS VL: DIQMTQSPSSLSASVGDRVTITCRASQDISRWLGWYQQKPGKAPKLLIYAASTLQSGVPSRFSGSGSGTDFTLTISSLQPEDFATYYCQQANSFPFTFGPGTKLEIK gave Inhibition, % at 3.7 nM of 90.4

Lab note: 33C4 (antibody, V domains shown, also called 780_39) VH: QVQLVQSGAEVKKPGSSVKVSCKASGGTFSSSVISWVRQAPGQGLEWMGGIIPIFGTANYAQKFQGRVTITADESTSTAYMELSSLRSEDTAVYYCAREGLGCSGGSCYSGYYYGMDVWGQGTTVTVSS VL: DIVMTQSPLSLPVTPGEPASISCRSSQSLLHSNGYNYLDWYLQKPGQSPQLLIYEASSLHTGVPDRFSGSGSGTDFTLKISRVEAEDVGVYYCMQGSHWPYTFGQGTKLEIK gave Inhibition, % at 3.7 nM of 53.4

Lab note: 31B1 (antibody, V domains shown, also called 780_38; 33B1 and 31B2 (apparent misprints)) VH: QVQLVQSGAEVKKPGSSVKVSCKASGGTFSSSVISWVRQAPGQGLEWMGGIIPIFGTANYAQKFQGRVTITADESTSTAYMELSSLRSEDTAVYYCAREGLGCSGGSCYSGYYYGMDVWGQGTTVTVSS VL: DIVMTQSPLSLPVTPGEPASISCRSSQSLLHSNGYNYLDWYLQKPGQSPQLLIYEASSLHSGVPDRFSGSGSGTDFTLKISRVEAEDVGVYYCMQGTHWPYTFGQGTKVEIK gave Inhibition, % at 3.7 nM of 41.4

FYI, the data here is from patent US20230416363A1.
